Data origin: ChEMBL document CHEMBL1201862

system: NCI/ADR-RES; assay: NCI tumour cell line growth inhibition, 48 h
Active and inactive are the calls of the source. Rule as the data show it: active = GI50 up to about 1.1 µM and inactive = higher.
Select the correct class. Options are active, inactive and nothing else.

Use the examples below as a reference point.
*Q* Per the records of this test, what outcome belongs to CCOP(=O)(OCC)OC1CC(n2cc(C)c(=O)n(C)c2=O)OC1CO[Si](C)(C)C(C)(C)C (stereo not given) ?
*A* inactive

*Q* Query COc1ccc(C)c2c1N[C@](C)([C@]1(C)Nc3c(OC)ccc(C)c3C1=O)C2=O next
*A* inactive

*Q* What would you report for CCC(C)C(=O)O[C@H]1C(=O)O[C@@H]2C[C@H]3C(C)=CC(=O)[C@@H](O)[C@]3(C)[C@H]3[C@@H](O)[C@H](O)[C@@]4(C)OC[C@]32[C@@H]14 (stereo not given in full) ?
*A* active

*Q* Same question for O/N=C1\CCc2cc3c(cc21)CCC3 please.
*A* inactive

*Q* Can you handle COc1ccc2c(c1)/C(=C\c1c(C)nc3n1CCS3)C(=O)N2 next?
*A* inactive

---
*Q* Which outcome did this test record for the compound CC1NC(/C(=C/c2ccccc2O)NC(=O)c2ccccc2)OC1=O (stereo not given) ?
*A* inactive

*Q* Then CC1CCN(c2nnc(Cl)cc2C(=O)c2ccccc2)CC1 ?
*A* inactive

*Q* And the next one, Cc1ccc(O)c(C2=NNC(c3cccc(Br)c3)C2)c1 (stereo not given) ?
*A* inactive

*Q* Next up: O=C1c2ccccc2-c2ccc(/N=N/c3c(O)ccc4ccccc34)cc21
*A* inactive

*Q* Same lookup for Cn1c(=O)n2n(c1=O)C1C(=CC2)C2C=CC1n1c(=O)n(C)c(=O)n12 (stereo not given) , please.
*A* inactive

---

tested on: HL-60; assay: NCI tumour cell line growth inhibition, 48 h
Active and inactive are the calls of the source. Cut-off read from the data, not from the text of the source: active = GI50 up to about 1.1 µM and inactive = higher.
Documented GI50 across a set of compounds

*Q* Entry CC(C)=C[C@@H]1C[C@H](n2cc(C)c(=O)[nH]c2=O)ON1CCO has what GI50?
*A* 3.08 µM (inactive)

*Q* // query: CCOc1ncnc2ccc(Cl)c(I)c12
*A* 38.8 µM (inactive)

*Q* Cool, now NCCCCC(=O)c1cccnc1
*A* > 100 µM (inactive)

*Q* Also check CCOC(=O)CNC(=O)NC12CC3CC(CC(C3)C1)C2
*A* 177 µM (inactive)

*Q* Same question, C/C=C(/COC(C)=O)C(=O)OC1C=C(C=O)C(C)(C)C=C1C (centres undefined) this time
*A* 45.1 µM (inactive)

*Q* Repeat with Cc1ccc(N(C)S(=O)(=O)c2ccc([N+](=O)[O-])cc2)cc1
*A* 54.6 µM (inactive)

*Q* Further, for O=C(O)c1cc(O)c2c(c1)C([C@@H]1c3cccc(O)c3C(=O)c3c(O)cc(C(=O)O)cc31)c1cccc(O)c1C2=O (some centres undefined) ?
*A* 29.9 µM (inactive)

*Q* Now this one: COC(=O)C(Cc1ccccc1)/N=C/c1c(O)c(O)c(C(C)C)c2cc(C)c(-c3c(C)cc4c(C(C)C)c(O)c(O)c(/C=N/C(Cc5ccccc5)C(=O)OC)c4c3O)c(O)c12 (centres undefined)
*A* 18.9 µM (inactive)

*Q* Also C[C@@H]1CC(=O)[C@@]2(C)[C@](O)(CCC3O[C@]32C)[C@@]12CC(c1ccoc1)OC2=O (some centres undefined) , if possible.
*A* 24.9 µM (inactive)
